test.system: UniProtKB O43526
Sequence (O43526 whole entry): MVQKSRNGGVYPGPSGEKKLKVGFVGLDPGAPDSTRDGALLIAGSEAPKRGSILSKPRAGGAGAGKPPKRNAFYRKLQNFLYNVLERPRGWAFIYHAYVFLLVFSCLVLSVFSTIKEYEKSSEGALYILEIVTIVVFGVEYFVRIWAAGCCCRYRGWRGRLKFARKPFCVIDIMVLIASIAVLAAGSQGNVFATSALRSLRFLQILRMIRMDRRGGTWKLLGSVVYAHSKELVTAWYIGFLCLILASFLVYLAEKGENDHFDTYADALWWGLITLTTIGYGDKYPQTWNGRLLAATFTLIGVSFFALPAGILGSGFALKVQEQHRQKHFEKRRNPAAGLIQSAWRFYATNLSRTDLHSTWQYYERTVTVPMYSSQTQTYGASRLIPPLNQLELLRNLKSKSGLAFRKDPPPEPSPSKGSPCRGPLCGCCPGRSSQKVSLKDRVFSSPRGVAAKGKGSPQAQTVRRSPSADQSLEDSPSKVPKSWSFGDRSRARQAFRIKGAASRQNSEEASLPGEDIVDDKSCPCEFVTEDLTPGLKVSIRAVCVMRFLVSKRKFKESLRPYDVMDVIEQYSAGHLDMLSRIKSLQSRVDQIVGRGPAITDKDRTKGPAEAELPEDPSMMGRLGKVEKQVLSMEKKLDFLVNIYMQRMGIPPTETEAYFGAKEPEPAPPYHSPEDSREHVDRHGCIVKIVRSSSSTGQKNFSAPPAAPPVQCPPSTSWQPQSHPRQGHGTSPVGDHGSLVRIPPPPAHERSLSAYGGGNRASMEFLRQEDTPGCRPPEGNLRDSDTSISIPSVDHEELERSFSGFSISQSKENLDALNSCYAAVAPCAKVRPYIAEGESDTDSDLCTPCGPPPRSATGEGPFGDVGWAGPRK
assay.comment: SyncroPatch 384 (Nanion) High Throughput Electrophysiology
metric.name: EC50 (µM)
# unit: µM | format: bare number

Prompt line: Find the recorded EC50 belonging to O=C(NCc1ccnc(-n2cccn2)c1)NC1COC2(CCCC2)C1 (stereo unspecified) and report it.
Response line: 3.63
